- Test system: T47D
- test.description: NCI tumour cell line growth inhibition, 48 h
Calls of active or inactive are those of the source. Cut-off read from the data, not from the text of the source: active = GI50 up to about 1.1 µM and inactive = higher.
Outcomes: active, inactive

{"columns": ["compound", "assay.system", "class.label"],
 "data": [
  ["O=C(CNC(=O)c1ccccc1)Oc1c(Cl)c(Cl)c(Cl)c(Cl)c1Cl", "T47D", "inactive"],
  ["OCCCNc1[nH]cnc2nncc1-2", "T47D", "inactive"],
  ["O=c1[nH]c(=O)n2n1C1C=CC2CC1", "T47D", "inactive"],
  ["CC(=O)O[C@H]1C(=O)[C@@]2(C)[C@H]([C@H](OC(=O)c3ccccc3)[C@]3(O)C[C@H](OC(=O)[C@H](O)[C@@H](NC(=O)c4ccoc4)c4ccccc4)C(C)=C1C3(C)C)[C@]1(OC(C)=O)CO[C@@H]1C[C@@H]2O", "T47D", "active"],
  ["CC(C)C(=O)CP(=O)(O)O", "T47D", "inactive"],
  ["O=C(O)C12CC3(C(=O)O)CC(C(=O)O)(CC(C(=O)O)(C1)C3=O)C2=O", "T47D", "inactive"],
  ["CC1=C(C(=O)NCCc2ccccc2)CC(C(=O)NCCc2ccccc2)=C(C)N1", "T47D", "inactive"],
  ["Nc1nc(NCC2(CO)CCC2)cc(=O)[nH]1", "T47D", "inactive"],
  ["O=C1/C(=C\\c2ccc([N+](=O)[O-])cc2)Sc2scc(-c3ccc(O)c(O)c3)[n+]21", "T47D", "inactive"],
  ["CN1CCN(Cc2ccc(C(=S)Nc3ccccc3)s2)CC1", "T47D", "inactive"],
  ["N#Cc1c(Nc2nc3ccccc3s2)c2ccccc2n2c1nc1ccccc12", "T47D", "inactive"],
  ["CSc1nc(NC(C)C)c2c(n1)Sc1nc3ccccc3n1C2O (stereo not drawn)", "T47D", "inactive"],
  ["C=C(C)COC1CCCCO1 (stereo not drawn)", "T47D", "inactive"],
  ["O=C(O)c1cc(O)nc(S)n1", "T47D", "inactive"],
  ["O=c1cc(CO)oc(C(O)c2ccccc2)c1O (stereo not drawn)", "T47D", "inactive"],
  ["CC(=O)OC(Cc1c(O)c2c(C)cccc2oc1=O)C(C)(C)O (stereo not drawn)", "T47D", "inactive"],
  ["CC1(C)O[C@H]2OC(CO)C(N=[N+]=[N-])[C@H]2O1 (stereo partly drawn)", "T47D", "inactive"],
  ["CCC(c1ccc(N(C)C)cc1)C1NC(=S)NC1=O (stereo not drawn)", "T47D", "inactive"],
  ["NC(=O)NC(=O)c1ccc(NC(=O)CBr)cc1", "T47D", "inactive"],
  ["Cc1cc(S(=O)(=O)Nc2nc(N)nc(N(C)C)n2)c(SCC(=O)O)cc1Cl", "T47D", "inactive"],
  ["Cc1cc(-c2no[n+]([O-])c2-c2cc(C)sc2S(C)(=O)=O)c(S(C)(=O)=O)s1", "T47D", "inactive"],
  ["CC(C)[Si](OC1=CCCCCC12C(=O)N(C)c1ccccc12)(C(C)C)C(C)C (stereo not drawn)", "T47D", "inactive"],
  ["Cc1ccc(S(=O)(=O)N/C(=C\\C=C\\c2ccccc2)C(=O)C(C)(C)C)cc1", "T47D", "inactive"],
  ["CCOc1cc(/C=C2/C(C)=NN(c3cccc(Cl)c3)/C2=N/c2nc3ccccc3s2)ccc1O", "T47D", "inactive"],
  ["COc1cc(CNC(=O)CCCCCCCCCCSC#N)ccc1O", "T47D", "inactive"],
  ["COc1cc2cc(C(=O)N3CC(COS(C)(=O)=O)c4ccc(NC(=O)OCc5ccccc5)cc43)[nH]c2c(OC)c1OC (stereo not drawn)", "T47D", "inactive"],
  ["O=C(CC(Cl)=C(Cl)Cl)c1ccccc1", "T47D", "inactive"],
  ["CC(=O)OC(OC(C)=O)c1ccc2ccc3cccc4ccc1c2c34", "T47D", "inactive"],
  ["O=C1Nc2ccccc2/C1=C1/Nc2ccccc2/C1=N/OCCOCCO", "T47D", "inactive"],
  ["CNc1ncnc2c1nnn2C", "T47D", "inactive"],
  ["COc1cccc(C2c3cc4c(cc3OC(C)(O)C2C)OCO4)c1O (stereo not drawn)", "T47D", "inactive"],
  ["COC(=O)C1=C(OC(=O)/C(=C/c2ccccc2)c2ccc(Cl)cc2Cl)C(C(=O)OC)[C@@]2(O)[C@@H](C(=O)OC)[C@H](C)C[C@@H]1[C@@H]2C(=O)OC (stereo partly drawn)", "T47D", "inactive"],
  ["CC(C)(O)/C1=C/C=C/CCCCCCCCCC1", "T47D", "inactive"],
  ["Cc1cccc2c1c(=O)c1c(O)c3c(cc1n2C)OC(C)(C)C=C3", "T47D", "inactive"],
  ["CCc1cccc(CC)c1NC(=O)C(C#N)C1=C(Cl)C(=O)c2ccccc2C1=O (stereo not drawn)", "T47D", "inactive"],
  ["O=C1c2cc3c(cc2CC12Cc1ccccc1C2)CCC3", "T47D", "inactive"],
  ["CC(=O)C(C(=N)C#N)C(=O)Nc1ccccc1 (stereo not drawn)", "T47D", "inactive"],
  ["Cc1cc2[nH]c(Cl)c(/C=C3\\C(=O)Nc4ccccc43)c2cc1O", "T47D", "inactive"],
  ["O=c1oc2ccc3ccccc3c2cc1-c1nnc(Nc2ccccc2)s1", "T47D", "inactive"],
  ["CN1CCN(CCCN2c3ccccc3Sc3ccc(C(F)(F)F)cc32)CC1", "T47D", "inactive"],
  ["CC1CN(c2cc3c(cc2F)c(=O)c(C(=O)O)cn3-c2ccc(F)cn2)CC(C)N1 (stereo not drawn)", "T47D", "inactive"],
  ["CN(C)CCCN1c2ccccc2C(C)(C)c2ccccc21 [DIMETACRINE]", "T47D", "inactive"],
  ["COC(=O)c1c(C(=O)OC)c2ccccn2c1-c1cc(OC)c(Br)c(=O)o1", "T47D", "inactive"]
]}
